# test.target: T1, human PAC1 receptor extracellular domain (ECD) (human, UniProt P41586 24-153)
# T1 construct: also called PAC1 receptor ECD; PAC1 ECD
# T1 sequence: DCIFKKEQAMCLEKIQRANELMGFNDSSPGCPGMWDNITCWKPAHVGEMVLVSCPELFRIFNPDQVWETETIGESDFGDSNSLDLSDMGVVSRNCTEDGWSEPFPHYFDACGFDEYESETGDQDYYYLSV
# assay.info: yeast-displayed Fab, FACS, 10 nM PAC1 receptor ECD
measured.parameter: Normalized Binding Signal/Display Signal (B/D) (ratio)

- binder: "anti-CGRP receptor variant 13, yeast-displayed Fab (Fab, V domains shown, also called Variant Ab ID 13) VH: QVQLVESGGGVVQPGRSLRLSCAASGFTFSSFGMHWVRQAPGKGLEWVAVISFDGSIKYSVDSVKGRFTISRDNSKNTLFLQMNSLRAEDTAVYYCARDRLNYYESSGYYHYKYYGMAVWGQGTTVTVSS VL: QSVLTQPPSVSAAPGQKVTISCSGSRSNIGRRTVSWYQQLPGTAPKLLIYDNNKRPSGIPDRFSGSKSGTSATLGITGLQTGDEADYYCGTWDSRLSAVVFGGGTKLTVLG"
  numeric.result: 0.11
- binder: "anti-CGRP receptor variant 14, yeast-displayed Fab (Fab, V domains shown, also called Variant Ab ID 14) VH: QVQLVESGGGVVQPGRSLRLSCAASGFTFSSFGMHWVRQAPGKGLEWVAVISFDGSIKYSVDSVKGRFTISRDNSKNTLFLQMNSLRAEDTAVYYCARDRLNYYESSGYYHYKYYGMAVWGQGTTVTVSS VL: QSVLTQPPSVSAAPGQKVTISCSGSSSNIGNNYVSWYQQLPGTAPKLLIYDNNKRPSGIPDRFSGSKSGTSATLGITGLQTGDEADYYCGTWDSWHRVVTFGGGTKLTVLG"
  numeric.result: 0.08
